system: COLO 205 colon; assay: NCI-60 one-dose screen, 48 h; conditions: 10 µM unless noted
The panel holds about 83,000 compounds, 20% with a hit somewhere; the sample as a whole holds those more often. Activity calls are given as the source filed them. How the source made its calls: active means growth percent below 10; inactive means the rest.
Classes to choose from: active, inactive

Check out these entries, answers already filled in.
CCOC(=O)c1cnc2c(OC)ccc(OC)c2c1Cl | inactive
Cc1cn(C2CC(N=[N+]=[N-])C(COP(=O)(O)OP(=O)(O)OP(=O)(O)O)O2)c(=O)[nH]c1=O (centres undefined) | inactive
COc1ccc(NC(=O)COCCOCCNC[C@@H]2C(=O)O[C@H]3[C@H]2CC/C(COC(=O)OC/C2=C/CC[C@@]4(C)O[C@H]4[C@H]4OC(=O)[C@@H](CN(C)C)[C@@H]4CC2)=C\CC[C@@]2(C)O[C@@H]32)c(O)c1C(N)=O | active
COc1ccc(/C=C/C(=O)c2ccc(-n3cc(CN4CCN(c5cc6c(cc5F)c(=O)c(C(=O)O)cn6C5CC5)CC4)nn3)cc2)cc1OC | inactive

# input State the result this test recorded for CN1C(=O)C2(NN=C(c3cccc4ccccc34)S2)c2ccccc21 (centres undefined) .
# output inactive

# input State the result this test recorded for COc1cc2ncnc(Oc3ccc(NC(=O)Nc4ccc(C5(C#N)CCCC5)cc4)c4ccccc34)c2cc1OC .
# output inactive

# input State the result this test recorded for Cc1ncc(CO)c(C(=O)O)c1O .
# output inactive

# input State the result this test recorded for C#CC(=O)/C=C/CCCCCCC#CC(=O)CCC(=O)C#CCCCCCC/C=C/C(=O)C#C .
# output active

# input State the result this test recorded for Cc1cn([C@]2(CF)O[C@H](CO)C2C)c(=O)[nH]c1=O (some centres undefined) .
# output inactive

# input State the result this test recorded for CN(C)CCNc1nc2ccccc2c2c(=O)c3ccccc3sc12 .
# output active

###

Quick reference for growth among some compounds
tested on: NCI-H226 lung; test: NCI-60 one-dose screen, 48 h (100 = growth as untreated, 0 = no growth, -100 = all killed); conditions: 10 µM unless noted
This is part of a sample that, as a whole, favours compounds with a hit. Of some 83,000 tested, about 20% had one in any assay.
I only need the number, in %, no unit after it.

Cc1ccc2nc(-c3ccc(-n4on4-c4ccc(/C=C/c5ccc(-n6on6-c6ccc(-c7nc8ccc(C)cc8s7)cc6)cc5S(=O)(=O)O)c(S(=O)(=O)O)c4)cc3)sc2c1 | 108

Next up:
# input Need growth, item S=c1ssnc1-c1ccccn1
# output 61.4

###

System: OVCAR-4 ovarian
Assay: NCI-60 one-dose screen, 48 h (100 = growth as untreated, 0 = no growth, -100 = all killed)
Conditions: 10 µM unless noted
Description: Growth inhibition of the OVCAR-4 human tumor cell line is measured as a screen for anti-cancer activity. Cells are grown in 96 well plates and exposed to the test compound for 48 hours. Compounds are tested at a single concentration, which is 10^-5 M for most compounds. The reported endpoint is percent growth (GI% or GIPRCNT), where numbers from 0 - 100% represent growth inhibition, and numbers from -100% - 0 represent cell death. For example, a value of 40 represents 60% growth inhibition. […]
Compounds without any hit were thinned out: in the full panel of roughly 83,000, 20% have a hit. Activity calls are given as the source filed them. How the source made its calls: active means growth percent below 10; inactive means the rest.
measurement_name: growth

CCOC(=O)C(C)(CSSCC(C)(NC(=O)c1ccc2ccccc2c1)C(=O)OCC)NC(=O)c1ccc2ccccc2c1 (centres undefined) | 104% (inactive)
CC1(C)CC(=O)C2=C(C1)OC1=C(C(=O)CC(C)(C)C1)C2c1ccc(OCc2cn(-c3ccc(F)cc3F)nn2)cc1 | 94.4% (inactive)
Cc1ccc(/C=C2/C(=O)Nc3cc(Cl)c(-c4csc(N)n4)cc32)cc1 | 68.7% (inactive)
Cc1cccc(Cc2cnc(NC(=O)CCc3ccc(C)o3)s2)c1 | 53.3% (inactive)
COc1ccccc1N1CCN(CC(O)COc2c(Br)c(Br)c(Br)c3c2OC(C)(C)C3)CC1 (centres undefined) | 30.4% (inactive)
COc1ccc(-c2nn(-c3ccc(NC(=O)c4cc(C(F)(F)F)cc(C(F)(F)F)c4)cc3)cc2-c2ccncc2)cc1Cl | 90.5% (inactive)
CNCCCOc1c(Br)cc(CCNC(=O)/C(Cc2cc(Br)c(OC)c(Br)c2)=N/O)cc1Br | 14.3% (inactive)
CC/C(=C(\CC)c1ccc(OCCN(CC)CC)cc1)c1ccc(OCCN(CC)CC)cc1 | 38.1% (inactive)
COc1ccc(-c2ccc(NC(=O)Nc3ccc(Cl)c(C(F)(F)F)c3)c(C)n2)cc1 | 45.1% (inactive)
CN(C)c1ccc(/C=N/n2c(-c3cc(F)c(Cl)cc3Cl)nn(CN3CCOCC3)c2=S)cc1 | 106% (inactive)

# input Need growth, item CCN(CC)CCN1C(=O)c2c(c3c4ccccc4[nH]c3c3[nH]c4ccccc4c23)C1=O
# output 72% (inactive)

###

Quick reference for growth among some compounds
system: K-562 leukemia; experiment: NCI-60 one-dose screen, 48 h (100 = growth as untreated, 0 = no growth, -100 = all killed); conditions: 10 µM unless noted
Compounds without any hit were thinned out: in the full panel of roughly 83,000, 20% have a hit.
I only need the number, in %, no unit after it.

CC1(C)CC(=O)C2=C(C1)OC1=C(C(=O)CC(C)(C)C1)C2c1ccc(OCc2cn(-c3ccc(F)cc3F)nn2)cc1 | 73.8

# input What is its growth for K-562 leukemia? Entry: CC(C)(C)OC(=O)NCc1cccc(N=C=S)c1
# output 37.3

# input What is its growth for K-562 leukemia? Entry: Cc1cn(C2CC(F)C(CO)O2)c(=O)[nH]c1=O (centres undefined)
# output 58.3

# input What is its growth for K-562 leukemia? Entry: COc1cc(/C=C2/Oc3cc4occc4c(OC)c3C2=O)ccc1OCC(=O)Nc1ccncc1
# output 107

# input What is its growth for K-562 leukemia? Entry: O=C(C[n+]1ccccc1Cl)c1ccc2c(c1)CCCC2
# output 82.9

# input What is its growth for K-562 leukemia? Entry: CNCCCOc1c(Br)cc(CCNC(=O)/C(Cc2cc(Br)c(OC)c(Br)c2)=N/O)cc1Br
# output -51.2

###

test system: MDA-MB-231 breast; test: NCI-60 one-dose screen, 48 h; conditions: 10 µM unless noted
This is part of a sample that, as a whole, favours compounds with a hit. Of some 83,000 tested, about 20% had one in any assay. Activity calls are given as the source filed them. Rule for the calls: active = growth percent below 10; inactive = the rest.
Classes to choose from: active, inactive

# input State the result this test recorded for O=C1c2ccccc2OC=C(c2ccccc2)N1CCCCNc1ccc(F)cc1 .
# output inactive

# input State the result this test recorded for O=C(Nc1ccc(-n2cc(-c3ccncc3)c(-c3ccc(O)c(Cl)c3)n2)cc1)c1cc(C(F)(F)F)cc(C(F)(F)F)c1 .
# output inactive

# input State the result this test recorded for CN1CCN(Cn2nc(-c3cc(F)c(Cl)cc3Cl)n(/N=C/c3ccc(N(C)C)cc3)c2=S)CC1 .
# output inactive

# input State the result this test recorded for Nn1c(SCC(=O)Nc2cc(Cl)c(Cl)cc2Cl)nnc1-c1cc(F)c(Cl)cc1Cl .
# output inactive

# input State the result this test recorded for CCc1c(C)c2cc3nc(NCc4ccccc4)oc3c(C)c2oc1=O .
# output inactive

# input State the result this test recorded for Cc1cc(Nc2ccc(Cl)c(Cl)c2)nc(N)n1 .
# output inactive

###

Quick reference for growth among some compounds
System: CCRF-CEM leukemia
Test: NCI-60 one-dose screen, 48 h (100 = growth as untreated, 0 = no growth, -100 = all killed)
Settings: 10 µM unless noted
Description: Growth inhibition of the CCRF-CEM human tumor cell line is measured as a screen for anti-cancer activity. Cells are grown in 96 well plates and exposed to the test compound for 48 hours. Compounds are tested at a single concentration, which is 10^-5 M for most compounds. The reported endpoint is percent growth (GI% or GIPRCNT), where numbers from 0 - 100% represent growth inhibition, and numbers from -100% - 0 represent cell death. For example, a value of 40 represents 60% growth inhibition. […]
About 83,000 compounds went through this panel and 20% of them were active in at least one assay; those are over-represented in the sample as a whole.
I only need the number, in %, no unit after it.

Example entries begin here.
CN[C@@H](CCCNC(N)=NC/C=C(/C)CCC=C(C)C)C(=O)N(C)[C@@H](CCCNC(N)=NCC=C(C)C)C(=O)N[C@H](C)[C@H](OS(=O)(=O)O)c1ccc(OS(=O)(=O)O)c(COS(=O)(=O)O)c1 | 102
O=[N+]([O-])c1ccccc1NC1c2ccccc2Oc2ccccc21 | 42.9
CCC1S/C(=N\N=C(/C)c2cc3ccccc3o2)N(c2ccccc2)C1=O (centres undefined) | -72.8
Clc1ccc(CN2COc3c(ccc4cccnc34)C2)cc1Cl | -11.1
Cc1cn([C@]2(CF)O[C@H](CO)C2C)c(=O)[nH]c1=O (some centres undefined) | 114

Next up:
# input What is its growth for CCRF-CEM leukemia? Entry: CCc1c(C)c2cc3nc(NCc4ccccc4)oc3c(C)c2oc1=O
# output 79.6
